molecular target: T1, GRB2 SH2 domain (human, UniProt P62993 60-152); assay: fluorescence polarisation; competition: rhodamine peptide 10 nM, protein at four times its KD, unlabeled competitor peptide in 11 serial 1:3 dilutions; Ki from IC50, one-site model; conditions: both partners purified
T1 construct: GRB2, human; source: bacterial expression, purified
T1 sequence (P62993 60-152): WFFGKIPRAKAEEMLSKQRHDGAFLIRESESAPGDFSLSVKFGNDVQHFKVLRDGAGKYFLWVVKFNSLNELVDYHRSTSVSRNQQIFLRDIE
Non-standard residues stand in square brackets, D forms with d. No end group written: not given here. pY = N[C@@H](Cc1ccc(OP(=O)(O)O)cc1)C(=O)O
# pKi per entry
Lab note — pKi values are minus log10 of concentrations in M.

binder: PQPE[pY]VNQPDVRD (human ErbB2 around Tyr1139; source: synthetic peptide) [ErbB2pY1139 phosphopeptide, unlabeled competitor]
observed_value: 5.77

pKi reported for this binder NEPL[pY]LNTFANTD (human ErbB4 around Tyr1208; source: synthetic peptide) [ErbB4pY1208 phosphopeptide, unlabeled competitor] : 5.16
